These measurements were taken from patent US20250129103A1.

experimentalProtocol: Determination of kinetic solubility (pH 7.4)
Format: physicochemical
conditionDetails: phosphate buffer, pH 7.4, aqueous buffer, kinetic from dmso stock, 50 mM phosphate buffer pH 7.4, read-out: Ksol, pH 7.4
observationType: solubility kinetic at 2 h
Entry format: amount then unit.

Tell us which solubility kinetic at 2 h value is on record for "CC(C)c1noc(/C=C/C(=O)N2CCN(c3nc(OC[C@]45CCCN4C[C@H](F)C5)nc4c3CCN(c3cccc5ccc(F)c(Cl)c35)C4)C[C@@H]2CC#N)n1"
0.01 µg/mL

Return reported solubility kinetic at 2 h. Input compound: "CO[C@@H]1CCN(C/C=C/C(=O)N2CCN(c3nc(OC[C@@]45CCCN4C[C@H](F)C5)nc4c(F)c(-c5cccc6cccc(Cl)c56)ncc34)C[C@@H]2CC#N)C1"
94.9 µg/mL

Please list solubility kinetic at 2 h recorded for the compound "N#CC[C@H]1CN(c2nc(OCC34CCCN3CCC4)nc3c2CCN(c2cccc4cccc(Cl)c24)C3)CCN1C(=O)/C=C/CN1CC(F)C1"
119 µg/mL
